# System: Homo sapiens
# test.method.notes: AUC in human at 500 mg, po administered as single dose
# Assay type: ADME, organism-based, Plasma
# run.conditions: in vivo
measured.quantity: AUC

CC[C@H]1OC(=O)[C@H](C)[C@@H](O[C@H]2C[C@](C)(OC)[C@H](O)[C@@H](C)O2)[C@H](C)[C@@H](O[C@@H]2O[C@@H](C)C[C@@H](N(C)C)[C@@H]2O)[C@](C)(O)C[C@@H](C)C(=O)[C@H](C)[C@@H](O)[C@]1(C)O [ERYTHROMYCIN A DIHYDRATE]	5800 ng·h/mL

In the following, a different molecule is considered.
Task item: # input molecule: CC[C@H]1OC(=O)[C@H](C)[C@@H](O[C@H]2C[C@@](C)(OC)[C@@H](O)[C@H](C)O2)[C@H](C)[C@@H](O[C@@H]2O[C@H](C)C[C@H](N(C)C)[C@H]2O)[C@](C)(OC)C[C@@H](C)C(=O)[C@H](C)[C@@H](O)[C@]1(C)O ; wanted: its AUC
Reply: 18900 ng·h/mL

* * *

# test.method.notes: Lipophilicity, log D at pH 8.0
# Format: physicochemical
# run.conditions: buffer
measured.quantity: logD
Could you respond with only the numeric value?

CC[C@H]1OC(=O)[C@H](C)[C@@H](O[C@H]2C[C@@](C)(OC)[C@@H](O)[C@H](C)O2)[C@H](C)[C@@H](O[C@@H]2O[C@H](C)C[C@H](N(C)C)[C@H]2O)[C@](C)(O)C[C@@H](C)/C(=N\OCOCCOC)[C@H](C)[C@@H](O)[C@]1(C)O	2.5

In the following, a different molecule is considered.
Task item: # input molecule: CC[C@H]1OC(=O)[C@H](C)[C@@H](O[C@H]2C[C@@](C)(OC)[C@@H](O)[C@H](C)O2)[C@H](C)[C@@H](O[C@@H]2O[C@H](C)C[C@H](N(C)C)[C@H]2O)[C@](C)(OC)C[C@@H](C)C(=O)[C@H](C)[C@@H](O)[C@]1(C)O ; wanted: its logD
Reply: 3.9

* * *

# test.method.notes: Cmax in human at 150 mg, po administered as single dose
# Assay type: ADME, organism-based
# Design: dose 150 mg, route oral
# run.conditions: in vivo
measured.quantity: Cmax (ng/mL)
Numbers only here, please. The scale is ng/mL.

Task item: # input compound: CC[C@H]1OC(=O)[C@H](C)[C@@H](O[C@H]2C[C@@](C)(OC)[C@@H](O)[C@H](C)O2)[C@H](C)[C@@H](O[C@@H]2O[C@H](C)C[C@H](N(C)C)[C@H]2O)[C@](C)(O)C[C@@H](C)/C(=N\OCOCCOC)[C@H](C)[C@@H](O)[C@]1(C)O ; wanted: its Cmax
Reply: 7900

* * *

# test.method.notes: Tmax in human at 500 mg, po administered as single dose
# Assay type: ADME, organism-based
# run.conditions: in vivo
measured.quantity: Tmax (h)
Numbers only here, please. The scale is h.

CC[C@H]1OC(=O)[C@H](C)[C@@H](O[C@H]2C[C@@](C)(OC)[C@@H](O)[C@H](C)O2)[C@H](C)[C@@H](O[C@@H]2O[C@H](C)C[C@H](N(C)C)[C@H]2O)[C@](C)(OC)C[C@@H](C)C(=O)[C@H](C)[C@@H](O)[C@]1(C)O [CLARITHROMYCIN]	2

Task item: # input molecule: CC[C@H]1OC(=O)[C@H](C)[C@@H](O[C@H]2C[C@](C)(OC)[C@H](O)[C@@H](C)O2)[C@H](C)[C@@H](O[C@@H]2O[C@@H](C)C[C@@H](N(C)C)[C@@H]2O)[C@](C)(O)C[C@@H](C)C(=O)[C@H](C)[C@@H](O)[C@]1(C)O [ERYTHROMYCIN A DIHYDRATE] ; wanted: its Tmax
Reply: 1
